# Tested Target: β5i subunit of human immunoproteasome (Homo sapiens, UniProt P28062)
# Procedure Text: Evaluation of reversible inhibitors of the β5i subunit (mode of inhibition and Ki, Dixon plots)
# Test Conditions: competitive inhibitors (footnote b), Suc-LLVY-AMC 12.5 µM to 125 µM, immunoproteasome 0.25 µg/mL
pKi: −log10 of the molar value.
Endpoint Label: pKi

P. Cc1cc(-c2coc3cc4oc(=O)c(CC(=O)O)c(C)c4cc23)c(C)s1
Q. Cc1c(CC(=O)O)c(=O)oc2cc3occ(C4CCCCC4)c3cc12
R. COc1cccc(-c2coc3cc4oc(=O)c(CC(=O)O)c(C)c4cc23)c1
S. Cc1c(CC(=O)O)c(=O)oc2cc3occ(-c4ccc(Br)cc4)c3cc12
T. Cc1c(CCC(=O)O)c(=O)oc2cc3occ(-c4ccco4)c3cc12
In: # ascending order, key=pKi Kindly provide the labels arranged according to the requested ordering.
Out: Q, T, P, S, R

* * *

# Tested Target: β5i subunit of human immunoproteasome (Homo sapiens)
# Procedure Text: Evaluation of reversible inhibitors of the β5i subunit (mode of inhibition and Ki, Dixon plots)
# Test Conditions: competitive inhibitors (footnote b), Suc-LLVY-AMC 12.5 µM to 125 µM, immunoproteasome 0.25 µg/mL
pKi: −log10 of the molar value.
Endpoint Label: pKi

Here is how some compounds turned out for pKi.
Compound Structure	pKi
Cc1c(CCC(=O)O)c(=O)oc2cc3occ(-c4ccccc4)c3cc12	5.80
COc1cccc(-c2coc3cc4oc(=O)c(CCC(=O)O)c(C)c4cc23)c1	4.53
Cc1c(CCC(=O)O)c(=O)oc2cc3occ(-c4ccc(Br)cc4)c3cc12	3.86
COc1ccc(-c2coc3cc4oc(=O)c(CC(=O)O)c(C)c4cc23)cc1	5.09

1. Cc1cc(-c2coc3cc4oc(=O)c(CCC(=O)O)c(C)c4cc23)c(C)s1
2. Cc1c(CC(=O)O)c(=O)oc2cc3occ(-c4ccco4)c3cc12
In: Given the listed records, identify the one among 1 and 2 with higher pKi. Write down the label of the entry you select.
Out: 1

a. Cc1c(CN)c(=O)oc2cc3occ(-c4ccccc4)c3cc12
b. O=C(O)Cc1cc2cc3c(-c4ccccc4)coc3cc2oc1=O
In: Given the listed records, identify the one among a and b with higher pKi. Write down the label of the entry you select.
Out: b
(b: 5.42, a: 4.40)

a. Cc1c(CC(=O)O)c(=O)oc2cc3occ(-c4ccccc4)c3cc12
b. Cc1cc(-c2coc3cc4oc(=O)c(CC(=O)O)c(C)c4cc23)c(C)o1
In: Given the listed records, identify the one among a and b with higher pKi. Write down the label of the entry you select.
Out: a
(a: 5.62, b: 3.45)

* * *

# Tested Target: β5i subunit of human immunoproteasome (Homo sapiens, UniProt P28062)
# Procedure Text: Evaluation of irreversible inhibitors of the β5i subunit (IC50)
# Test Conditions: Suc-LLVY-AMC 25 µM, immunoproteasome 0.25 µg/mL, fluorescence increase between 20th and 60th minute
pIC50: −log10 of the molar value.
Endpoint Label: pIC50

a. Cc1c(CC(=O)ON2C(=O)CCC2=O)c(=O)oc2cc3occ(-c4ccccc4)c3cc12
b. Cc1c(CCC(=O)ON2C(=O)CCC2=O)c(=O)oc2cc3occ(-c4ccccc4)c3cc12
c. C=CC(=O)Nc1c(C)c2cc3c(-c4ccccc4)coc3cc2oc1=O
In: # ascending order, key=pIC50 Kindly provide the labels arranged according to the requested ordering.
Out: c, a, b
